systemTested: Hck (UniProt P08631)
Sequence (P08631 whole entry, looked up): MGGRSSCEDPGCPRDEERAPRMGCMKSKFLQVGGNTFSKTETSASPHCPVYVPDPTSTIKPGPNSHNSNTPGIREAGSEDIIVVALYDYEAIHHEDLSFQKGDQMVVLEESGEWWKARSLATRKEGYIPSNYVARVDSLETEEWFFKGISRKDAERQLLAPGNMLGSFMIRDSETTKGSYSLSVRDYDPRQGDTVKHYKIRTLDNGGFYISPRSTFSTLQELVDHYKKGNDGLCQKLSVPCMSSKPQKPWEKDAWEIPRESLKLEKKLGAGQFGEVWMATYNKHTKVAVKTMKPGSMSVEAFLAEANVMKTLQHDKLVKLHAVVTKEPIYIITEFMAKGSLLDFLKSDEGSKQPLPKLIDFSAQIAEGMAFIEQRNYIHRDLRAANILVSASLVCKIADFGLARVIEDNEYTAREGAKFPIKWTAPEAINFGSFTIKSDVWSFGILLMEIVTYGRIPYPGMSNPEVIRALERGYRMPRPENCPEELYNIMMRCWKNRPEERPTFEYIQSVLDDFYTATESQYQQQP
procedureDetails: phosphorylation enrichment, bacterial display (enrichment ratio); higher = better substrate or ligand; peptides without Tyr show the background
measuredProperty: phosphorylation enrichment
// keep it numeric: no unit symbol after the value

residues | readoutNumber
HPAGNYSLSSV [ARFGAP3_Y473_Q468H] | 0.553
KPIETYFSKNY [PLP1_Y50_L46P] | 0.45
RLLREYQELMN [KRT75_Y434] | 0.458

Query: Which phosphorylation enrichment reading was recorded for the sequence GRVLGYGAFRK [FLT4_Y853_G857R] ?
Result: 0.486

Query: Which phosphorylation enrichment reading was recorded for the sequence DPHECYAKVFN [ALB_Y394_D399N] ?
Result: 0.81

Query: Which phosphorylation enrichment reading was recorded for the sequence SYKNKYGMVAQ [APOB_Y276] ?
Result: 0.442

Query: Which phosphorylation enrichment reading was recorded for the sequence RRERLYGGGGG [FUS_Y526_P525L] ?
Result: 0.365

----------
Tested on: AncSZ
procedureDetails: phosphorylation enrichment, bacterial display (enrichment ratio); higher = better substrate or ligand; peptides without Tyr show the background
measuredProperty: phosphorylation enrichment
// keep it numeric: no unit symbol after the value

Look over these answered cases.
residues | readoutNumber
TQNAVYSAANY [DDX5_Y535_G533A] | 0.643
PGLRGYPGLSG [COL4A2_Y306] | 0.709

Query: Which phosphorylation enrichment reading was recorded for the sequence LFMGDYVDRGY [PPP2CA_Y86] ?
Result: 1.6

Query: Which phosphorylation enrichment reading was recorded for the sequence DQVEQYKKELE [LMNA_Y259] ?
Result: 1.32

Query: Which phosphorylation enrichment reading was recorded for the sequence QGIFGYHHFMQ [UFSP2_Y287_YF] ?
Result: 1.32

Query: Which phosphorylation enrichment reading was recorded for the sequence CTTIHYNYVCN [TP53_Y234_M237V] ?
Result: 0.904

Query: Which phosphorylation enrichment reading was recorded for the sequence ARAFIYAIIPA [ACKtide_2014] ?
Result: 1.4

----------
Catalogue of SH2 binding enrichment readings, one per entry.
systemTested: Grb2 SH2 (UniProt P62993)
Sequence (P62993 whole entry, looked up): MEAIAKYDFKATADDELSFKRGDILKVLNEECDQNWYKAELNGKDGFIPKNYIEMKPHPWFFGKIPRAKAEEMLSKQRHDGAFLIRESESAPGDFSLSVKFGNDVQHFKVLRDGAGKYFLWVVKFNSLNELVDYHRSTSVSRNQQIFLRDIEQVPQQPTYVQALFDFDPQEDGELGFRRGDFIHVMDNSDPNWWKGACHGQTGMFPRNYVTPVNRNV
procedureDetails: SH2 binding enrichment of the phosphorylated peptide, bacterial display (enrichment ratio); higher = better substrate or ligand; peptides without Tyr show the background
// keep it numeric: no unit symbol after the value

Look over these answered cases.
residues | systemTested | SH2 binding enrichment
MKVPLYETPAG [PGM5_Y358_V357L] | Grb2 SH2 (UniProt P62993) | 1.01
TWQSMYGCDVG [HLA-B_Y123_L119W] | Grb2 SH2 (UniProt P62993) | 0.899
RNDQVYQPLRD [CD3D_Y149] | Grb2 SH2 (UniProt P62993) | 0.787
CTTIHYHYMCN [TP53_Y234_N235H] | Grb2 SH2 (UniProt P62993) | 1.33
VYYGSYSCPYG [NKAP_Y104_R106C] | Grb2 SH2 (UniProt P62993) | 0.653

Query: Which SH2 binding enrichment reading was recorded for the sequence MAFDRYVAICA [OR52J3_Y125_V128I] ?
Result: 1.08

Query: Which SH2 binding enrichment reading was recorded for the sequence GVRLFYRVRES [RB1_Y454_M457R_YF] ?
Result: 0.705

Query: Which SH2 binding enrichment reading was recorded for the sequence GSERRYTREGG [PTPRN2_Y139_S140T] ?
Result: 0.777

Query: Which SH2 binding enrichment reading was recorded for the sequence FGGTVCHSPVS [PRC1_Y511_Y511C] ?
Result: 0.756

Query: Which SH2 binding enrichment reading was recorded for the sequence CGLPRYRWLTH [TSPAN12_Y143_Y138C] ?
Result: 0.838

----------
systemTested: MERTK (UniProt Q12866)
Sequence (Q12866 whole entry, looked up): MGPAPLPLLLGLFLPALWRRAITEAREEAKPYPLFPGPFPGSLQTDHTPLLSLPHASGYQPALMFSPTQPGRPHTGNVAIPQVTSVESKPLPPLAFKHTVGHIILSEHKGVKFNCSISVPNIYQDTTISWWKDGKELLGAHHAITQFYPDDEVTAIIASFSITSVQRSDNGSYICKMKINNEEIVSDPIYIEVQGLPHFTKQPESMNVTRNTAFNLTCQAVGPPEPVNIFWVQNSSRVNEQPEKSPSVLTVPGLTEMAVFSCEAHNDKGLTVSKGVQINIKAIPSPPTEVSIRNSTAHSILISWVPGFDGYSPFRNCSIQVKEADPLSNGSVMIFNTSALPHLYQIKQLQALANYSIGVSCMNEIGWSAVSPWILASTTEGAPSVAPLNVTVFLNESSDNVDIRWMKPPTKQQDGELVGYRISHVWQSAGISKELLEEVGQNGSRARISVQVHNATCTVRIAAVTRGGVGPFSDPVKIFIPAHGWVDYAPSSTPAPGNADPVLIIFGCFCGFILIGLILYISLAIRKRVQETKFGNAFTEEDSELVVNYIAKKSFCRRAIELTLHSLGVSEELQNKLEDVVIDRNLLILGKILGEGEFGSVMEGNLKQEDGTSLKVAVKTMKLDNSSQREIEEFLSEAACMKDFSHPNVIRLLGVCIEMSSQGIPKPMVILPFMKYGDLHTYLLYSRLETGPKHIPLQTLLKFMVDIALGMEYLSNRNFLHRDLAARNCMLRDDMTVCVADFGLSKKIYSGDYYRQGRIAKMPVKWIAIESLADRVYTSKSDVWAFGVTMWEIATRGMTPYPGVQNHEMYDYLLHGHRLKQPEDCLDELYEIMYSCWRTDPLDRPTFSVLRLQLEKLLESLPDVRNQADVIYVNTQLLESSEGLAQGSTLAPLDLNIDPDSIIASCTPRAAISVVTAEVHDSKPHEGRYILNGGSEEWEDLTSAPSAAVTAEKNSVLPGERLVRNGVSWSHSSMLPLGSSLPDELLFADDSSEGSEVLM
procedureDetails: phosphorylation enrichment, bacterial display (enrichment ratio); higher = better substrate or ligand; peptides without Tyr show the background
measuredProperty: phosphorylation enrichment
// keep it numeric: no unit symbol after the value

Look over these answered cases.
residues | systemTested | phosphorylation enrichment
DRLPSYLDKVR [KRT12_Y139_A137P] | MERTK (UniProt Q12866) | 0.656
RALLNYIASKF [GSTA3_Y74_I71L_YF] | MERTK (UniProt Q12866) | 0.597
QLFGPYLRIHA [BSCL2_Y213_A212P_YF] | MERTK (UniProt Q12866) | 0.485
IIRQLYLKWHP [SACS_Y4333_R4331Q] | MERTK (UniProt Q12866) | 1.08
TTASRYLKVSD [MYOM2_Y871_N869S] | MERTK (UniProt Q12866) | 0.313

Query: Which phosphorylation enrichment reading was recorded for the sequence ARAFIYAIIPA [ACKtide_2014] ?
Result: 6.87

Query: Which phosphorylation enrichment reading was recorded for the sequence QDTSRYTVSNL [BIRC3_Y245] ?
Result: 0.567

Query: Which phosphorylation enrichment reading was recorded for the sequence GLSDPYVKIHL [SYT2_Y309] ?
Result: 0.397

Query: Which phosphorylation enrichment reading was recorded for the sequence RRGMPYGGHGD [TGM1_Y312_R315H] ?
Result: 0.465

Query: Which phosphorylation enrichment reading was recorded for the sequence VNTMLYEKFTF [TEK_Y1108_T1106M_YF] ?
Result: 8.45

Query: Which phosphorylation enrichment reading was recorded for the sequence KVGRVYLFLQP [ITGA2B_Y360_E355K] ?
Result: 0.391

Query: Which phosphorylation enrichment reading was recorded for the sequence ELTTCYRKKCC [CCBE1_Y70] ?
Result: 0.413

----------
systemTested: Fyn (UniProt P06241)
Sequence (P06241 whole entry, looked up): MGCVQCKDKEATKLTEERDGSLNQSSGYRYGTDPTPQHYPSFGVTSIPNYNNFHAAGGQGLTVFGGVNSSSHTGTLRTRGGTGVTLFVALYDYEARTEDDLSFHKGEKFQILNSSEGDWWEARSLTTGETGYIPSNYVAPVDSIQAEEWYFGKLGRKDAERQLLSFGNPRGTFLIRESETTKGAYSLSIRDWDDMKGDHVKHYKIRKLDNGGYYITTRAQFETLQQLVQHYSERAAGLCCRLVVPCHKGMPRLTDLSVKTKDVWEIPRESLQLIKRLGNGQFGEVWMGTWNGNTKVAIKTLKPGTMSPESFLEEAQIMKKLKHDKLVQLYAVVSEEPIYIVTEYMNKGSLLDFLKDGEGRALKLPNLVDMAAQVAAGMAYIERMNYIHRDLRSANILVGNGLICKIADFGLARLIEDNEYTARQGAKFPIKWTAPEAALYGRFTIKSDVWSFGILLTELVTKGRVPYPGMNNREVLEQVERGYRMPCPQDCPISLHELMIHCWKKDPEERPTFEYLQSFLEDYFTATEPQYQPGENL
procedureDetails: phosphorylation enrichment, bacterial display (enrichment ratio); higher = better substrate or ligand; peptides without Tyr show the background
Where phosphorylation enrichment equals or exceeds 0.5, the correct label is true (1); where it does not, the label is false (0).

Query: # bool: phosphorylation enrichment of EAEALYQTKFQ [KRT73_Y325] >= 0.5
Result: true (1)

Query: # bool: phosphorylation enrichment of GITVTYTIPKK [UBA5_Y372_A371T] >= 0.5
Result: false (0)

Query: # bool: phosphorylation enrichment of PPNSPYMGSSP [KCNT1_Y740_I741M] >= 0.5
Result: true (1)

----------
Tested on: Fer (mouse)
procedureDetails: phosphorylation enrichment, bacterial display (enrichment ratio); higher = better substrate or ligand; peptides without Tyr show the background
Where phosphorylation enrichment equals or exceeds 0.5, the correct label is 1; where it does not, the label is -1.

Use these answered entries as a reference point.
residues | assignedClass
YAGRDYSLDEF [MYOF_Y1705_G1701A] | 1
VAFVYYKSIGP [ADGRL4_Y302] | 1
SVTCTYFPALN [TP53_Y126_S127F] | 1
DPHECYAKVFN [ALB_Y394_D399N] | 1
YGPPQYNIQYS [ERBB2IP_Y977] | 1
TTKAKYKTPTF [PLD2_Y573_YF] | -1
TTASRYLKVSD [MYOM2_Y871_N869S] | -1
PTDCVYVMPTV [MYO7A_Y1668_S1666C] | 1
ELPEKYSQNIC [PKP2_Y626_Y631C] | -1
RALLNYIASKF [GSTA3_Y74_I71L_YF] | 1

Query: # bool: phosphorylation enrichment of LEQRPYRRGSE [KCNJ12_Y427_E430G] >= 0.5
Result: -1

Query: # bool: phosphorylation enrichment of VISNAYVDLAP [HSD17B4_Y602] >= 0.5
Result: 1

----------
Tested on: c-Abl (mouse)
procedureDetails: phosphorylation enrichment, bacterial display (enrichment ratio); higher = better substrate or ligand; peptides without Tyr show the background
measuredProperty: phosphorylation enrichment
// keep it numeric: no unit symbol after the value

Look over these answered cases.
residues | systemTested | phosphorylation enrichment
GGDVIYKGFED [NFU1_Y194] | c-Abl (mouse) | 0.663
AKFPSYEKNKK [FOXL2_Y91_F90S] | c-Abl (mouse) | 0.544
SLQFEYVHFGG [CDC14A_Y591_S589F_YF] | c-Abl (mouse) | 0.781
ADGLEYSRTEL [MMUT_Y287_G291E] | c-Abl (mouse) | 0.621
WVYNHYRWIIW [BRCA2_Y2624] | c-Abl (mouse) | 0.841
VASIFYTLVIP [OR8K3_Y277] | c-Abl (mouse) | 0.882

Moving on to the next sequence.
Query: Which phosphorylation enrichment reading was recorded for the sequence MAFDRYVAICA [OR52J3_Y125_V128I] ?
Result: 0.362

----------
systemTested: Fes (UniProt P07332)
Sequence (P07332 whole entry, looked up): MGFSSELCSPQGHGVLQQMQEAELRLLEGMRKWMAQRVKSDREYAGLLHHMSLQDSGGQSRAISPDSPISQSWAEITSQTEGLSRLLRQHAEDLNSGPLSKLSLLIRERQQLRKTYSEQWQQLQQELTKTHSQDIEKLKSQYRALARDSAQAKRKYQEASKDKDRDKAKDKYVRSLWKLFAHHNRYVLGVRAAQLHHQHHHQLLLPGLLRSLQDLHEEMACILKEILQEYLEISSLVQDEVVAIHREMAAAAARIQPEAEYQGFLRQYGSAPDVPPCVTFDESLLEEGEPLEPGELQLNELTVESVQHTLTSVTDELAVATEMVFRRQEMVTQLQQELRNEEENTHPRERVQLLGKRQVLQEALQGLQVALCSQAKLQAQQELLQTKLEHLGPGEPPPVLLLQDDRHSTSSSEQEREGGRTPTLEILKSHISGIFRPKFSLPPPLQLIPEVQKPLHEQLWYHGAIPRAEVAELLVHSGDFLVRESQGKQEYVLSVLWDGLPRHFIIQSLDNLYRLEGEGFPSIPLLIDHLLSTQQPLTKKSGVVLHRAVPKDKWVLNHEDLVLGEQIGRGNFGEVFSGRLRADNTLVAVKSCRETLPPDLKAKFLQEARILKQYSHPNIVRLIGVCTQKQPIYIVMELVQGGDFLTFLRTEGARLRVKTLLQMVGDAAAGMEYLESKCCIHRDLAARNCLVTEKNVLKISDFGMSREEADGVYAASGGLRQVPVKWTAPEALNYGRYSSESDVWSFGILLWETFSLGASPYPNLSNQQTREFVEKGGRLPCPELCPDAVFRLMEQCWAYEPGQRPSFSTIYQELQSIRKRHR
procedureDetails: phosphorylation enrichment, bacterial display (enrichment ratio); higher = better substrate or ligand; peptides without Tyr show the background
measuredProperty: phosphorylation enrichment
// keep it numeric: no unit symbol after the value

residues | readoutNumber
NARGLYFKLHN [GATA2_Y376_C373R_YF] | 1.34
NQNIGYELGHR [KCNN3_Y268_K269E] | 0.486
CGASGYSATST [CERT1_Y143_S138C] | 1.08

Query: Which phosphorylation enrichment reading was recorded for the sequence PTDCVYVMPTV [MYO7A_Y1668_S1666C] ?
Result: 1.06

Query: Which phosphorylation enrichment reading was recorded for the sequence DPAFGYEDFTR [SESN2_Y323_T320A] ?
Result: 1.21

Query: Which phosphorylation enrichment reading was recorded for the sequence VDEERYDIEGK [TNNI3_Y112_A116G] ?
Result: 1.3
